Cited source for all entries: paper PMC10011573

system: S. aureus (ATCC 29213, MSSA); conditions: ATCC 29213, 20 h
No end group written: not given here.
QUANTITY_NAME: S. aureus MIC

Guide cases for S. aureus MIC, answers given:
substance="Ac-LWSAYKHR-NH2 [S3]" measured_result="> 100 µM"
substance="Ac-WSAYKH-NH2 [S5]" measured_result="> 100 µM"
substance="LGIKILWSAYKHRKTI-NH2 [L-6]" measured_result="> 100 µM"

// each substance listed below needs its S. aureus MIC
1. Ac-KILWSAYKHR-NH2 [S1]
2. Ac-WSAYKHR-NH2 [S4]
3. Ac-ILWSAYKHR-NH2 [S2]

output:
1: > 100 µM; 2: > 100 µM; 3: > 100 µM

====

tested on: S. aureus (ATCC 29213, MSSA); settings: ATCC 29213, 20 h
Residues, ends and D or L forms follow the SMILES beside them. *: point of attachment. Heptanoyl = CCCCCCC(=O)*; Octanoyl = CCCCCCCC(=O)*; Pentanoyl = CCCCC(=O)*
QUANTITY_NAME: S. aureus MBC (µM)
Give bare numbers, in µM.

compound="CCCCCCC(=O)N[C@@H](CC(C)C)C(=O)NCC(=O)N[C@H](C(=O)N[C@@H](CCCCN)C(=O)N[C@H](C(=O)N[C@@H](CC(C)C)C(=O)N[C@@H](Cc1c[nH]c2ccccc12)C(=O)N[C@@H](CO)C(=O)N[C@@H](C)C(=O)N[C@@H](Cc1ccc(O)cc1)C(=O)N[C@@H](CCCCN)C(=O)N[C@@H](Cc1c[nH]cn1)C(=O)N[C@@H](CCCNC(=N)N)C(=O)N[C@@H](CCCCN)C(=O)N[C@H](C(=O)N[C@H](C(N)=O)[C@@H](C)CC)[C@@H](C)O)[C@@H](C)CC)[C@@H](C)CC [L-6-C7] (Heptanoyl-LGIKILWSAYKHRKTI-NH2)" quantity_name="S. aureus MBC" measured_result=3.1
compound="CCCCC(=O)N[C@@H](CC(C)C)C(=O)NCC(=O)N[C@H](C(=O)N[C@@H](CCCCN)C(=O)N[C@H](C(=O)N[C@@H](CC(C)C)C(=O)N[C@@H](Cc1c[nH]c2ccccc12)C(=O)N[C@@H](CO)C(=O)N[C@@H](C)C(=O)N[C@@H](Cc1ccc(O)cc1)C(=O)N[C@@H](CCCCN)C(=O)N[C@@H](Cc1c[nH]cn1)C(=O)N[C@@H](CCCNC(=N)N)C(=O)N[C@@H](CCCCN)C(=O)N[C@H](C(=O)N[C@H](C(N)=O)[C@@H](C)CC)[C@@H](C)O)[C@@H](C)CC)[C@@H](C)CC [L-6-C5] (Pentanoyl-LGIKILWSAYKHRKTI-NH2)" quantity_name="S. aureus MBC" measured_result=6.2
compound="CCCCC(=O)N[C@@H](CC(C)C)C(=O)NCC(=O)N[C@@H](CC(C)C)C(=O)N[C@@H](CCCCN)C(=O)N[C@@H](CC(C)C)C(=O)N[C@@H](CC(C)C)C(=O)N[C@@H](Cc1c[nH]c2ccccc12)C(=O)N[C@@H](CO)C(=O)N[C@@H](C)C(=O)N[C@@H](Cc1ccc(O)cc1)C(=O)N[C@@H](CCCCN)C(=O)N[C@@H](Cc1c[nH]cn1)C(=O)N[C@@H](CCCNC(=N)N)C(=O)N[C@@H](CCCCN)C(=O)N[C@H](C(=O)N[C@@H](CC(C)C)C(N)=O)[C@@H](C)O [L-6-C5-Leu] (Pentanoyl-LGLKLLWSAYKHRKTL-NH2)" quantity_name="S. aureus MBC" measured_result=3.1

// switching to the query compound
Lab book: S. aureus MBC of CCCCCCCC(=O)N[C@@H](CC(C)C)C(=O)NCC(=O)N[C@H](C(=O)N[C@@H](CCCCN)C(=O)N[C@H](C(=O)N[C@@H](CC(C)C)C(=O)N[C@@H](Cc1c[nH]c2ccccc12)C(=O)N[C@@H](CO)C(=O)N[C@@H](C)C(=O)N[C@@H](Cc1ccc(O)cc1)C(=O)N[C@@H](CCCCN)C(=O)N[C@@H](Cc1c[nH]cn1)C(=O)N[C@@H](CCCNC(=N)N)C(=O)N[C@@H](CCCCN)C(=O)N[C@H](C(=O)N[C@H](C(N)=O)[C@@H](C)CC)[C@@H](C)O)[C@@H](C)CC)[C@@H](C)CC [L-6-C8] (Octanoyl-LGIKILWSAYKHRKTI-NH2) noted as 3.1

====

system: S. aureus (ATCC 29213, MSSA); conditions: ATCC 29213, 20 h
Residues, ends and D or L forms follow the SMILES beside them. *: point of attachment. Hexanoyl = CCCCCC(=O)*; Butyryl = CCCC(=O)*
QUANTITY_NAME: S. aureus MBC (µM)
Give bare numbers, in µM.

compound="CCCC(=O)N[C@@H](CC(C)C)C(=O)NCC(=O)N[C@H](C(=O)N[C@@H](CCCCN)C(=O)N[C@H](C(=O)N[C@@H](CC(C)C)C(=O)N[C@@H](Cc1c[nH]c2ccccc12)C(=O)N[C@@H](CO)C(=O)N[C@@H](C)C(=O)N[C@@H](Cc1ccc(O)cc1)C(=O)N[C@@H](CCCCN)C(=O)N[C@@H](Cc1c[nH]cn1)C(=O)N[C@@H](CCCNC(=N)N)C(=O)N[C@@H](CCCCN)C(=O)N[C@H](C(=O)N[C@H](C(N)=O)[C@@H](C)CC)[C@@H](C)O)[C@@H](C)CC)[C@@H](C)CC [L-6-C4] (Butyryl-LGIKILWSAYKHRKTI-NH2)" measured_result=25

// switching to the query compound
Lab book: S. aureus MBC of CCCCCC(=O)N[C@@H](CC(C)C)C(=O)NCC(=O)N[C@H](C(=O)N[C@@H](CCCCN)C(=O)N[C@H](C(=O)N[C@@H](CC(C)C)C(=O)N[C@@H](Cc1c[nH]c2ccccc12)C(=O)N[C@@H](CO)C(=O)N[C@@H](C)C(=O)N[C@@H](Cc1ccc(O)cc1)C(=O)N[C@@H](CCCCN)C(=O)N[C@@H](Cc1c[nH]cn1)C(=O)N[C@@H](CCCNC(=N)N)C(=O)N[C@@H](CCCCN)C(=O)N[C@H](C(=O)N[C@H](C(N)=O)[C@@H](C)CC)[C@@H](C)O)[C@@H](C)CC)[C@@H](C)CC [L-6-C6] (Hexanoyl-LGIKILWSAYKHRKTI-NH2) noted as 6.2

====

For each of the compounds below, state its E. coli MBC, antibiotic alone.
system: E. coli (K-12 MG1655); format: cell-based; conditions: Table 6; K-12 MG1655; checkerboard assay, 50:50 PBS/LB-broth, 200 µL
One number for each entry, in µg/mL.

// each compound listed below needs its E. coli MBC, antibiotic alone
1. CNC(C)C1CCC(N)C(OC2C(N)CC(N)C(OC3OCC(C)(O)C(NC)C3O)C2O)O1 (stereo not shown)
2. CO/N=C(\C(=O)N[C@@H]1C(=O)N2C(C(=O)O)=C(COC(C)=O)CS[C@H]12)c1csc(N)n1
3. CO[C@H]1/C=C/O[C@@]2(C)Oc3c(C)c(O)c4c(O)c(c(/C=N/N5CCN(C)CC5)c(O)c4c3C2=O)NC(=O)/C(C)=C\C=C\[C@H](C)[C@H](O)[C@@H](C)[C@@H](O)[C@@H](C)[C@H](OC(C)=O)[C@@H]1C

output:
1. 1
2. 0.5
3. 100

Lab book: E. coli MBC, antibiotic alone of O=C(O)c1cn(C2CC2)c2cc(N3CCNCC3)c(F)cc2c1=O noted as 0.125

====

system: human erythrocytes; experiment: Hemolytic activity; format: cell-based; details: 15% suspension in PBS, 1 h, 37 °C, absorbance 540 nm, highest tested concentration 100 µM
Residues, ends and D or L forms follow the SMILES beside them. *: point of attachment. Hexanoyl = CCCCCC(=O)*
QUANTITY_NAME: HC, hemolytic concentration at 5% hemolytic activity (µM)
Numbers only, in µM.

Lab book: HC, hemolytic concentration at 5% hemolytic activity of CCCCCC(=O)N[C@@H](CC(C)C)C(=O)NCC(=O)N[C@@H](CC(C)C)C(=O)N[C@@H](CCCCN)C(=O)N[C@@H](CC(C)C)C(=O)N[C@@H](CC(C)C)C(=O)N[C@@H](Cc1c[nH]c2ccccc12)C(=O)N[C@@H](CO)C(=O)N[C@@H](C)C(=O)N[C@@H](Cc1ccc(O)cc1)C(=O)N[C@@H](CCCCN)C(=O)N[C@@H](Cc1c[nH]cn1)C(=O)N[C@@H](CCCNC(=N)N)C(=O)N[C@@H](CCCCN)C(=O)N[C@H](C(=O)N[C@@H](CC(C)C)C(N)=O)[C@@H](C)O [L-6-C6-Leu] (Hexanoyl-LGLKLLWSAYKHRKTL-NH2) noted as 60

====

For each of the compounds below, state its HC, hemolytic concentration at 5% hemolytic activity.
tested on: human erythrocytes; assay: Hemolytic activity; assay type: cell-based; conditions: 15% suspension in PBS, 1 h, 37 °C, absorbance 540 nm, highest tested concentration 100 µM
Residues, ends and D or L forms follow the SMILES beside them. *: point of attachment. Heptanoyl = CCCCCCC(=O)*
Numbers only, in µM.

compound="CCCCCCC(=O)N[C@@H](CC(C)C)C(=O)NCC(=O)N[C@@H](CC(C)C)C(=O)N[C@@H](CCCCN)C(=O)N[C@@H](CC(C)C)C(=O)N[C@@H](CC(C)C)C(=O)N[C@@H](Cc1c[nH]c2ccccc12)C(=O)N[C@@H](CO)C(=O)N[C@@H](C)C(=O)N[C@@H](Cc1ccc(O)cc1)C(=O)N[C@@H](CCCCN)C(=O)N[C@@H](Cc1c[nH]cn1)C(=O)N[C@@H](CCCNC(=N)N)C(=O)N[C@@H](CCCCN)C(=O)N[C@H](C(=O)N[C@@H](CC(C)C)C(N)=O)[C@@H](C)O [L-6-C7-Leu] (Heptanoyl-LGLKLLWSAYKHRKTL-NH2)" value_units=µM measured_result=30

// switching to the query compound
Lab book: HC, hemolytic concentration at 5% hemolytic activity of CCCCCCC(=O)N[C@@H](CC(C)C)C(=O)NCC(=O)N[C@H](C(=O)N[C@@H](CCCCN)C(=O)N[C@H](C(=O)N[C@@H](CC(C)C)C(=O)N[C@@H](Cc1c[nH]c2ccccc12)C(=O)N[C@@H](CO)C(=O)N[C@@H](C)C(=O)N[C@@H](Cc1ccc(O)cc1)C(=O)N[C@@H](CCCCN)C(=O)N[C@@H](Cc1c[nH]cn1)C(=O)N[C@@H](CCCNC(=N)N)C(=O)N[C@@H](CCCCN)C(=O)N[C@H](C(=O)N[C@H](C(N)=O)[C@@H](C)CC)[C@@H](C)O)[C@@H](C)CC)[C@@H](C)CC [L-6-C7] (Heptanoyl-LGIKILWSAYKHRKTI-NH2) noted as 80
